- assay: Oral bioavailability in Wistar rat at 30 mg/kg
- Type: ADME, organism-based
- particulars: in vivo
measured.quantity: bioavailability (%)
State just the number; it will be interpreted in %.

For the molecule shown here, `CC(C)(O)c1nc2cc(Cl)ccc2n1[C@H]1CC[C@@H](NC[C@H]2Cc3ccc(C#N)cc3C2)CC1` , give the reported bioavailability. 33

###

- assay: AUC in Wistar rat at 30 mg/kg, po
- Assay type: ADME, organism-based
- Parameters: dose 30 mg/kg, route oral
- particulars: plasma
measured.quantity: AUC (ng·h/mL)
State just the number; it will be interpreted in ng·h/mL.

For the compound shown here, `CC(C)(O)c1nc2cc(Cl)ccc2n1[C@H]1CC[C@@H](NC[C@H]2Cc3ccc(C#N)cc3C2)CC1` , give the reported AUC. 2000
